FYI, the data here is from patent US6809097B1.

Answer each item with its documented melting point.

melting point recorded for this compound, COc1cc2nccc(Oc3cccc(O)c3)c2cc1OC , is 140 °C

melting point recorded for this compound, COCCOc1cc2nccc(Nc3ccc(C)c(O)c3)c2cc1C#N.Cl , is 275 to 278 °C

melting point recorded for this compound, COc1cc2nccc(Nc3cccc(O)c3)c2cc1OC.Cl , is 280 to 283 °C
